Test system: UACC-257 melanoma
Experiment: NCI-60 one-dose screen, 48 h (100 = growth as untreated, 0 = no growth, -100 = all killed)
Details: 10 µM unless noted
This is part of a sample that, as a whole, favours compounds with a hit. Of some 83,000 tested, about 20% had one in any assay.
Ranges used to classify growth: low: < 60%; middle: ≥ 60% and < 90%; high: ≥ 90%

INSERT INTO measurements (molecule, category_label) VALUES
  ('N#C/C(=C\c1ccc([N+](=O)[O-])cc1)n1nnc2cc(F)c(F)cc21', 'middle'),
  ('FC(F)(F)Oc1cccc(-c2cnc3ccc(-c4ccncc4)nn23)c1', 'low'),
  ('CCOc1ccc(-n2nc(C(=O)NCc3ccccc3OC)nc2-c2cc(OC)c(OC)c(OC)c2)cc1', 'middle'),
  ('CCN1C(=O)N(CC)C2C1N=C(SCc1ccc(Cl)cc1)N2/N=C/C=C/c1ccccc1OC (configuration not stated)', 'low'),
  ('Cc1ccc(NC(=O)Cn2c(Br)nc3c2c(=O)n(C)c(=O)n3C)cc1', 'middle'),
  ('COc1ccc(N2CCN(C(=O)c3sc4nc(C)c(Br)c(C)c4c3N)CC2)cc1', 'high'),
  ('C=C1C(=O)O[C@H]2[C@H]1CC/C(CNC(=O)c1c[nH]c3ccc(F)cc13)=C\CC[C@@]1(C)O[C@@H]21', 'low'),
  ('NS(=O)(=O)c1ccc(NC(=O)/C(=C\c2ccc(Cl)cc2Cl)NC(=O)c2ccccc2)cc1', 'high'),
  ('CN1CCN(CCCOc2cccc3nc(Nc4ccc(F)c(F)c4)ccc23)CC1', 'low'),
  ('COc1cc(NC(=O)c2cncnc2Nc2ccc3c(ccn3Cc3ccccn3)c2)cc(OC)c1', 'middle'),
  ('CC(C)(C)n1cc(-c2ccnc(NCCCNS(=O)(=O)c3ccc(C(F)(F)F)cc3)c2)c(-c2cccc(F)c2)n1', 'high'),
  ('CN1CCN(C(=S)SCCCCOc2cc(=O)oc3ccccc23)CC1', 'middle'),
  ('CNC(=O)c1ccccc1Nc1nc(Nc2cc(OC)c(OC)c(OC)c2)ncc1Br', 'low'),
  ('Oc1c(CN2CCOCC2)cc(COCc2ccccc2)c2cccnc12', 'low'),
  ('Cc1c(CC(=S)N2CCOCC2)nnn1-c1cccc(C(F)(F)F)c1', 'high'),
  ('O=C1/C(=C/c2ccc(O)c(O)c2)COc2ccc(-c3ccccc3)cc21', 'low'),
  ('CCNc1ccc(-c2nc3ccccc3n3cccc23)cc1', 'middle'),
  ('O=C(CCCCCNC(=O)c1cc(=O)c(O)co1)Nc1ccccc1', 'high'),
  ('O=C1/C(=C2\SC(=S)N(C3CC3)C2=O)SC(=S)N1C1CC1', 'high'),
  ('COc1ccc(Cn2cc(C(=O)N=Nc3c(O)[nH]c4c(C)cccc34)nn2)cc1', 'high'),
  ('COc1ccc(-c2ccc(-c3ccc(C(=N)N)nc3)s2)cc1Cl', 'high'),
  ('C=C(C)[C@@H]1CCC[C@]2(C(=O)O)CC[C@]3(C)[C@@H](CC[C@@H]4[C@@]5(C)C/C(=C/c6ccncc6)C(=O)C(C)(C)[C@@H]5CC[C@]43C)[C@@H]12', 'low'),
  ('O=C1Nc2ccccc2C1(c1c[nH]c2ccccc12)c1c[nH]c2ccccc12', 'high'),
  ('COc1ccc2cc(-c3ccnc4c(N=Nc5ccc(Cl)cc5)c(N)nn34)ccc2c1', 'middle'),
  ('Cn1c2c(c3ccc(Cl)c(Cl)c31)C(C#N)C(C)(C)NC2=O (configuration not stated)', 'middle'),
  ('COc1ccc(/C=C/c2ccc3ccccc3n2)c(OC)c1', 'middle'),
  ('O=C(CN1CCCCCC1)Nc1nc2ccc(NCc3ccc(Cl)cc3)cc2s1', 'high');

Origin of measurements: PubChem BioAssay (NCI)
